# assay.details: AUC(infinity) in Sprague-Dawley rat model of bleomycin-induced pulmonary fibrosis at 1 mg/kg, iv by LC-MS/MS analysis
# Assay type: ADME, organism-based
# Design: time infinity, dose 1 mg/kg, route iv
# measurement.conditions: in vivo
parameter.measured: AUC(0-inf) (ng·h/mL)
The reply should contain only the number, in ng·h/mL.

Enquiry: Quick one: AUC(0-inf) for "Cc1cc(=O)n(-c2ccc(N3CCOCC3)c(F)c2)c(C)n1" ?
Return: 7290

====

# assay.details: AUC(infinity) in Sprague-Dawley rat model of bleomycin-induced pulmonary fibrosis at 10 mg/kg, po by LC-MS/MS analysis
# Type: ADME, organism-based
# Design: time infinity, dose 10 mg/kg, route po
# measurement.conditions: in vivo
parameter.measured: AUC(0-inf) (ng·h/mL)
Numbers only; they are read as ng·h/mL.

Enquiry: Quick one: AUC(0-inf) of "Cc1ccc(=O)n(-c2ccccc2)c1" ?
Return: 3460

FYI, the data here is from ChEMBL document CHEMBL5136958.
